Listed here: compounds with reported AC50 for Kappa-type opioid receptor (Homo sapiens, UniProt P41145).

Field: example entries. Status: answers known.
compound: CC1(C)C(C=C(Cl)Cl)C1C(=O)OCc1cccc(Oc2ccccc2)c1 (stereo unspecified)
AC50: > 10 µM
//
compound: Cc1cc(CC(=O)O)n(C)c1C(=O)c1ccc(Cl)cc1 [ZOMEPIRAC]
AC50: > 30 µM
//
compound: CC(C)(C)NC[C@H](O)COc1nsnc1N1CCOCC1
AC50: > 30 µM
//
compound: C[C@]1(COc2ccc(N3CCC(Oc4ccc(OC(F)(F)F)cc4)CC3)cc2)Cn2cc([N+](=O)[O-])nc2O1
AC50: > 10 µM

Simply: Nc1nc(F)nc2c1ncn2[C@@H]1O[C@H](COP(=O)(O)O)[C@@H](O)[C@@H]1O [FLUDARABINE PHOSPHATE] , Kappa-type opioid receptor (Homo sapiens, UniProt P41145), AC50 = > 30 µM

Simply: CCCC[C@H](C)C[C@H](O)/C=C/[C@H]1[C@H](O)CC(=O)[C@@H]1CCCC/C=C/C(=O)O , Kappa-type opioid receptor (Homo sapiens, UniProt P41145), AC50 = > 30 µM
